// reported F (Kivar/KiWT) for each item listed
# MEASURED_TARGET: human plasma Kallikrein (Homo sapiens, UniProt P03952)
# Construct: purchased Stratech, UK
# Sequence (P03952 20-638): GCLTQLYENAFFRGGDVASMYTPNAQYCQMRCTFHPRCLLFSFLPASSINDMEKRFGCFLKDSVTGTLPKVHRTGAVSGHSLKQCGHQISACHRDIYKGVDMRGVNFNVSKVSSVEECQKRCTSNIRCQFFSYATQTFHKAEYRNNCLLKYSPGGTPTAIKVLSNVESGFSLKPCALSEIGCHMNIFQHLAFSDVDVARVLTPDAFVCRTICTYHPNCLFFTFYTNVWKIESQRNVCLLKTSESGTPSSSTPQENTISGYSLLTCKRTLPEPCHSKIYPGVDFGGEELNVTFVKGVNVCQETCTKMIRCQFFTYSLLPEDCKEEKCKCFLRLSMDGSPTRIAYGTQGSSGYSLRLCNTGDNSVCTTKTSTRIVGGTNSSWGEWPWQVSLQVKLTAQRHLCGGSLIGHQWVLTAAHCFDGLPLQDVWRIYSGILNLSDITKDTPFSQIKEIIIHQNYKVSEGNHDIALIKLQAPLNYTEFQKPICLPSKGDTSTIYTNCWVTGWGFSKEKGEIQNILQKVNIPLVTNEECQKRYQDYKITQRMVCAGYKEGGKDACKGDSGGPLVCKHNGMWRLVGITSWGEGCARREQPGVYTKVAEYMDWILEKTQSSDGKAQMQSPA
# ASSAY_PROCEDURE: Functional enzyme inhibition assay with fluorogenic substrate Z-PheArg-AMC, human plasma Kallikrein
# Type: biochemical
# MEASUREMENT_CONTEXT: Table 24b; ratio of Ki to wild type
Numbered stars: 1 amine (or outer) side, 2 acyl side, 3 side chain; on linkers, the order of the positions; unused ones are H or OH. Bridge positions count the residues as written; N and C are the ends. Square brackets hold non-standard residues; d marks the D form. Peptide text beside a SMILES is read from it. TBMB = c1c(C[*:1])cc(C[*:3])cc1C[*:2]; X1 = O=C([C@H](Cn1cncn1)N[*:1])[*:2]; His(π-Me) = Cn1cncc1C[C@H](N)C(=O)O; Agb = N=C(N)NCC[C@H](N)C(=O)O; Dap = NC[C@H](N)C(=O)O
PROPERTY: F (Kivar/KiWT)

INSERT INTO results (compound, measured_target, data_value) VALUES
  ('CC(=O)N[C@H]1CSCc2cc3cc(c2)CSC[C@H](NC(=O)[C@H](CCCNC(=N)N)NC(=O)[C@H](Cc2ccc(O)cc2)NC(=O)[C@@H]2CCCN2C(=O)[C@H](Cc2ccccc2)NC(=O)[C@H](CO)NC1=O)C(=O)N[C@@H](CC(C)C)C(=O)N[C@@H](CCNC(=N)N)C(=O)N[C@@H](CCC(N)=O)C(=O)N[C@@H](CC(=O)O)C(=O)N[C@@H](CC(C)C)C(=O)N[C@H](C(N)=O)CSC3 [Ac-(06-34-18) Phe2 Tyr4 Agb7] (Ac-CSFPYRCL[Agb]QDLC-NH2; linker 1-7-13 via TBMB)', 'human plasma Kallikrein (Homo sapiens, UniProt P03952)', 5365),
  ('CC(=O)N[C@H]1CSCc2cc3cc(c2)CSC[C@H](NC(=O)[C@H](CCCNC(=N)N)NC(=O)[C@H](Cc2ccc(O)cc2)NC(=O)[C@@H]2CCCN2C(=O)[C@H](Cc2ccccc2)NC(=O)[C@H](CO)NC1=O)C(=O)N[C@@H](CC(C)C)C(=O)N[C@@H](Cn1cncn1)C(=O)N[C@@H](CCC(N)=O)C(=O)N[C@@H](CC(=O)O)C(=O)N[C@@H](CC(C)C)C(=O)N[C@H](C(N)=O)CSC3 [Ac-(06-34-18) Phe2 Tyr4 1,2,4-TriAz7] (Ac-CSFPYRCL[X1]QDLC-NH2; linker 1-7-13 via TBMB)', 'human plasma Kallikrein (Homo sapiens, UniProt P03952)', 1084),
  ('CC(=O)N[C@H]1CSCc2cc3cc(c2)CSC[C@H](NC(=O)[C@H](CCCNC(=N)N)NC(=O)[C@H](Cc2ccc(O)cc2)NC(=O)[C@@H]2CCCN2C(=O)[C@H](Cc2ccccc2)NC(=O)[C@H](CO)NC1=O)C(=O)N[C@@H](CC(C)C)C(=O)N[C@@H](Cc1cncn1C)C(=O)N[C@@H](CCC(N)=O)C(=O)N[C@@H](CC(=O)O)C(=O)N[C@@H](CC(C)C)C(=O)N[C@H](C(N)=O)CSC3 [Ac-(06-34-18) Phe2 Tyr4 His3Me7] (Ac-CSFPYRCL[His(π-Me)]QDLC-NH2; linker 1-7-13 via TBMB)', 'human plasma Kallikrein (Homo sapiens, UniProt P03952)', 696),
  ('CC(=O)N[C@H]1CSCc2cc3cc(c2)CSC[C@H](NC(=O)[C@H](CCCNC(=N)N)NC(=O)[C@H](Cc2ccc(O)cc2)NC(=O)[C@@H]2CCCN2C(=O)[C@H](Cc2ccccc2)NC(=O)[C@H](CO)NC1=O)C(=O)N[C@@H](CC(C)C)C(=O)N[C@@H](CN)C(=O)N[C@@H](CCC(N)=O)C(=O)N[C@@H](CC(=O)O)C(=O)N[C@@H](CC(C)C)C(=O)N[C@H](C(N)=O)CSC3 [Ac-(06-34-18) Phe2 Tyr4 Dap7] (Ac-CSFPYRCL[Dap]QDLC-NH2; linker 1-7-13 via TBMB)', 'human plasma Kallikrein (Homo sapiens, UniProt P03952)', 586);

* * *

// reported Ki for each item listed
# MEASURED_TARGET: human plasma Kallikrein (Homo sapiens, UniProt P03952)
# Construct: purchased Stratech, UK
# ASSAY_PROCEDURE: Functional enzyme inhibition assay with fluorogenic substrate Z-PheArg-AMC, human plasma Kallikrein
# Type: biochemical
# MEASUREMENT_CONTEXT: Table 3b, D-amino acid scan in Loop2; read-out: Ki
# Procedure: Functional enzyme assays were conducted in 10 mM Tris HCl, 150 mM NaCl, 10 mM MgCl2, 1 mM CaCl2) and 1 mg/mL BSA (all Sigma UK) pH7.4 at 25° C. in solid black 96 well plates. […] Release of AMC was measured using a Pherastar FS (BMG Labtech), excitation 360 nm, emission 460 nm. The rate of the linear phase of the reaction, typically 5 to 45 minutes, was calculated in MARS data analysis software (BMG labtech). […]
Numbered stars: 1 amine (or outer) side, 2 acyl side, 3 side chain; on linkers, the order of the positions; unused ones are H or OH. Bridge positions count the residues as written; N and C are the ends. Square brackets hold non-standard residues; d marks the D form. Peptide text beside a SMILES is read from it. TBMB = c1c(C[*:1])cc(C[*:3])cc1C[*:2]
PROPERTY: Ki (µM)

INSERT INTO results (molecule, measured_target, data_value) VALUES
  ('CC(=O)N[C@H]1CSCc2cc3cc(c2)CSC[C@H](NC(=O)[C@H](CCCNC(=N)N)NC(=O)[C@H](Cc2ccc(O)cc2)NC(=O)[C@@H]2CCCN2C(=O)[C@H](Cc2ccccc2)NC(=O)[C@H](CO)NC1=O)C(=O)N[C@H](CC(C)C)C(=O)N[C@@H](Cc1c[nH]cn1)C(=O)N[C@@H](CCC(N)=O)C(=O)N[C@@H](CC(=O)O)C(=O)N[C@@H](CC(C)C)C(=O)N[C@H](C(N)=O)CSC3 [Ac-(06-34-18) Phe2 Tyr4 D-Leu6] (Ac-CSFPYRC[dL]HQDLC-NH2; linker 1-7-13 via TBMB)', 'human plasma Kallikrein (Homo sapiens, UniProt P03952)', 9.08),
  ('CC(=O)N[C@H]1CSCc2cc3cc(c2)CSC[C@H](NC(=O)[C@H](CCCNC(=N)N)NC(=O)[C@H](Cc2ccc(O)cc2)NC(=O)[C@@H]2CCCN2C(=O)[C@H](Cc2ccccc2)NC(=O)[C@H](CO)NC1=O)C(=O)N[C@@H](CC(C)C)C(=O)N[C@@H](Cc1c[nH]cn1)C(=O)N[C@H](CCC(N)=O)C(=O)N[C@@H](CC(=O)O)C(=O)N[C@@H](CC(C)C)C(=O)N[C@H](C(N)=O)CSC3 [Ac-(06-34-18) Phe2 Tyr4 D-Gln8] (Ac-CSFPYRCLH[dQ]DLC-NH2; linker 1-7-13 via TBMB)', 'human plasma Kallikrein (Homo sapiens, UniProt P03952)', 0.317);

* * *

# MEASURED_TARGET: human plasma Kallikrein (Homo sapiens, UniProt P03952)
# Construct: purchased Stratech, UK
# ASSAY_PROCEDURE: Functional enzyme inhibition assay with fluorogenic substrate Z-PheArg-AMC, human plasma Kallikrein
# Type: biochemical
# MEASUREMENT_CONTEXT: Table 24c; ratio of Ki to wild type
Numbered stars: 1 amine (or outer) side, 2 acyl side, 3 side chain; on linkers, the order of the positions; unused ones are H or OH. Bridge positions count the residues as written; N and C are the ends. Square brackets hold non-standard residues; d marks the D form. Peptide text beside a SMILES is read from it. TBMB = c1c(C[*:1])cc(C[*:3])cc1C[*:2]; β3hQ = NC(=O)CC[C@H](N)CC(=O)O
PROPERTY: F (Kivar/KiWT)

INSERT INTO measurements (compound, data_value) VALUES
  ('CC(=O)N[C@H]1CSCc2cc3cc(c2)CSC[C@H](NC(=O)[C@H](CCCNC(=N)N)NC(=O)[C@H](Cc2ccc(O)cc2)NC(=O)[C@@H]2CCCN2C(=O)[C@H](Cc2ccccc2)NC(=O)[C@H](CO)NC1=O)C(=O)N[C@@H](CC(C)C)C(=O)N[C@@H](Cc1c[nH]cn1)C(=O)N[C@@H](CC(=O)O)C(=O)N[C@@H](CC(=O)O)C(=O)N[C@@H](CC(C)C)C(=O)N[C@H](C(N)=O)CSC3 [Ac-(06-34-18) Phe2 Tyr4 Asp8] (Ac-CSFPYRCLHDDLC-NH2; linker 1-7-13 via TBMB)', 9),
  ('CC(=O)N[C@H]1CSCc2cc3cc(c2)CSC[C@H](NC(=O)[C@H](CCCNC(=N)N)NC(=O)[C@H](Cc2ccc(O)cc2)NC(=O)[C@@H]2CCCN2C(=O)[C@H](Cc2ccccc2)NC(=O)[C@H](CO)NC1=O)C(=O)N[C@@H](CC(C)C)C(=O)N[C@@H](Cc1c[nH]cn1)C(=O)N[C@@H](CCC(=O)O)C(=O)N[C@@H](CC(=O)O)C(=O)N[C@@H](CC(C)C)C(=O)N[C@H](C(N)=O)CSC3 [Ac-(06-34-18) Phe2 Tyr4 Glu8] (Ac-CSFPYRCLHEDLC-NH2; linker 1-7-13 via TBMB)', 6),
  ('CC(=O)N[C@H]1CSCc2cc3cc(c2)CSC[C@H](NC(=O)[C@H](CCCNC(=N)N)NC(=O)[C@H](Cc2ccc(O)cc2)NC(=O)[C@@H]2CCCN2C(=O)[C@H](Cc2ccccc2)NC(=O)[C@H](CO)NC1=O)C(=O)N[C@@H](CC(C)C)C(=O)N[C@@H](Cc1c[nH]cn1)C(=O)N[C@@H](CCC(N)=O)CC(=O)N[C@@H](CC(=O)O)C(=O)N[C@@H](CC(C)C)C(=O)N[C@H](C(N)=O)CSC3 [Ac-(06-34-18) Phe2 Tyr4 bHGln8] (Ac-CSFPYRCLH[β3hQ]DLC-NH2; linker 1-7-13 via TBMB)', 40),
  ('CC(=O)N[C@H]1CSCc2cc3cc(c2)CSC[C@H](NC(=O)[C@H](CCCNC(=N)N)NC(=O)[C@H](Cc2ccc(O)cc2)NC(=O)[C@@H]2CCCN2C(=O)[C@H](Cc2ccccc2)NC(=O)[C@H](CO)NC1=O)C(=O)N[C@@H](CC(C)C)C(=O)N[C@@H](Cc1c[nH]cn1)C(=O)N[C@@H]([C@@H](C)O)C(=O)N[C@@H](CC(=O)O)C(=O)N[C@@H](CC(C)C)C(=O)N[C@H](C(N)=O)CSC3 [Ac-(06-34-18) Phe2 Tyr4 Thr8] (Ac-CSFPYRCLHTDLC-NH2; linker 1-7-13 via TBMB)', 10);
